Biological target: sheep Cyclooxygenase-1 (Cox1), PTGS1 (gene 443551)
Assay: NVS_ENZ_oCOX1: NovaScreen (NVS) Enzymatic Assay for sheep Cyclooxygenase-1 (Cox1) (AID 2283239);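 further: actives reduce cyclooxygenase activity so potencies are for inhibitors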
Procedure: NVS_ENZ_oCOX1 is a biochemical, single-readout assay that uses extracted gene-proteins from Ovine seminal vesicles in a tissue-based cell-free assay. Measurements were taken 0.66 hour after chemical dosing in a 96-well plate.NVS_ENZ_oCOX1 is one of one assay component(s) measured or calculated from the NVS_ENZ_oCOX1 assay. […] This assay endpoint, NVS_ENZ_oCOX1, was analyzed in the positive analysis fitting direction relative to DMSO as the negative control and baseline of activity. […]
Inconclusive results are not listed. Activity calls are given as the source filed them. How the source made its calls: active means hit-call score of the fitted dose curve at least 0.9, where 1 is the maximum; inconclusive means response in the unintended direction; inactive means score below 0.9.
Assign a class; possible classes are 1 = active, -1 = inactive

Worked examples follow.
• CCCCC(CC)COC(=O)CC(C(=O)OCC(CC)CCCC)S(=O)(=O)O (centres undefined) = 1
• CC=Cc1ccc(O)c(OC)c1 = -1
• CCOC(=O)C(C)(C)Oc1ccc(Cl)cc1 = -1
• CC(=O)OC/C=C(\C)CCC=C(C)C = 1
• COc1cc(-c2nc(NC(=O)c3cc4cc(C)cc(C)c4n3CC(=O)O)sc2CCC2CCCCC2)c(OC)cc1Cl = 1

Query :: Give the logged outcome of this assay for the following compound: COc1ccc(C)cc1N
Result :: 1

Query :: Answer briefly: the call reported for Nc1nc(N)c2nc(CNc3ccc(C(=O)N[C@@H](CCC(=O)O)C(=O)O)cc3)cnc2n1 in this assay.
Result :: 1

Query :: // return assay outcome for CC(=O)Oc1ccccc1C(=O)O
Result :: -1

Query :: Called result for CC1=C(/C=C/C(C)=C/C=C/C(C)=C/CO)C(C)(C)CCC1
Result :: 1

====

test: Tanguay_ZF_120hpf_YSE_legacy: (Legacy) Oregon State University Tanguay Lab 120 Hour Post-fertilization zebrafish Assay for Yolk Sac Edema (AID 2283634)
Inconclusive results are not listed. Calls of active or inactive are those of the source. How the source made its calls: active means hit-call score of the fitted dose curve at least 0.9, where 1 is the maximum; inconclusive means response in the unintended direction; inactive means score below 0.9.
Valid outcomes are listed here; reply with one: active, inactive

Completed entries (count: 10):
* CCCCCCCCCCCC(=O)OC | inactive
* Cc1nc(-c2ccc3c(c2)CCN(CCC2CCC(NC(=O)/C=C/c4ccc(F)cc4)CC2)CC3)no1 (configuration not stated) | inactive
* CC1(C)NC(=O)NC1=O | inactive
* Cc1cc(=O)[nH]c(=S)[nH]1 | inactive
* CCOc1ccc2c(c1)C(C)=CC(C)(C)N2 | inactive
* CCCCCCCCCCO | inactive
* O=[N+]([O-])C(CO)(CO)CO | inactive
* CCCCCCCCCCC | inactive
* CNCc1cc(F)ccc1Oc1ccc(Cl)c(Cl)c1 | inactive
* CN1CCN(Cc2cc(-c3ccc4[nH]c(=O)oc4c3)co2)[C@@H](c2ccc(F)cc2)C1 | inactive

Query :: Which result was noted for this molecule in the test: Cc1cccc(C)c1O
Result :: inactive

Query :: Please share the test call associated with NC(=O)Cn1c(=O)cc(CCN2CCN(c3nccc4sccc34)CC2)c2ccc(F)cc21 .
Result :: inactive

Query :: For this molecule, state the assay outcome: CCCCOC(=O)CCCCCCCCC(=O)OCCCC
Result :: inactive

Query :: // return assay outcome for Cc1ccc(C(C)C)c(O)c1
Result :: inactive

Query :: Name the outcome recorded for Cc1c(C(=O)O)c(O)cc2c1C(=O)c1c(O)c([C@@H]3O[C@H](CO)[C@@H](O)[C@H](O)[C@H]3O)c(O)c(O)c1C2=O in the assay.
Result :: inactive

Query :: Test call for this molecule, please: Cc1oc(-c2ccccc2)nc1CCOc1cccc2c1ccn2CCC(=O)O
Result :: inactive

Query :: Could you please tell me the result logged for CCCCC(CC)COC(=O)CC(C(=O)OCC(CC)CCCC)S(=O)(=O)O (configuration not stated) in this assay?
Result :: inactive

====

test: ATG_AP_1_CIS: Attagene CIS-FACTORIAL HepG2 Assay for human Activator Protein 1 (AP-1) (AID 2282931); settings: HepG2 Attagene cis-factorial AP-1 reporter mRNA; actives raise or lower the signal
Active and inactive are the calls of the source. Rule for the calls: active = hit-call score of the fitted dose curve at least 0.9, where 1 is the maximum; inactive = score below 0.9.
Response enum: active, inactive

Example results:
- COc1ccc2c(c1)c(CC(=O)O)c(C)n2C(=O)c1ccc(Cl)cc1: inactive
- CCc1c(C(=O)NN2CCCCC2)nn(-c2ccc(Cl)cc2Cl)c1-c1ccc(Br)cc1: active
- Nc1ccccc1N: active
- CC(C)(C)c1cc(O)c(C(C)(C)C)cc1O: active

Query :: Tell me the assay call for CN1CCN(Cc2cc(-c3ccc4[nH]c(=O)oc4c3)co2)[C@@H](c2ccc(F)cc2)C1 please.
Result :: active

Query :: Just curious, what result did O=C(O)CCCCC(=O)O get here?
Result :: inactive

Query :: # outcome recorded in this test, key = CCCCCCCCCCC
Result :: inactive

====

test: ATG_SREBP_CIS: Attagene CIS-FACTORIAL HepG2 Assay for human Sterol Regulatory Element Binding (SREBP) (AID 2282962); details: HepG2 Attagene cis-factorial SREBP reporter, mRNA; actives raise or lower the signal
The source made the active and inactive calls. How the source made its calls: active means hit-call score of the fitted dose curve at least 0.9, where 1 is the maximum; inactive means score below 0.9.
Your response should consist of one outcome taken from class 1 (active), class 0 (inactive)

# count of solved cases: 10
* NCC1(Cc2noc(=O)[nH]2)CCCCC1 | class 0
* O=C(O)CCCCC(=O)O | class 0
* Clc1cc(Cl)c(Cl)cc1Cl | class 0
* NC(=O)Cn1c(=O)cc(CCN2CCN(c3nccc4sccc34)CC2)c2ccc(F)cc21 | class 1
* CCCc1cc(=O)[nH]c(=S)[nH]1 | class 0
* Cc1ccc(Cl)cc1 | class 0
* Cc1cc(=O)[nH]c(=S)[nH]1 | class 0
* CC(=O)C(C)=CC1C(C)=CCCC1(C)C (centres undefined) | class 0
* CC(C)(C)c1cc(O)c(C(C)(C)C)cc1O | class 1
* CC(=O)Oc1ccccc1C(=O)O | class 0

Query :: // param item: CC1(C)CC(N=C=O)CC(C)(CN=C=O)C1 (centres undefined) ; yields the recorded call
Result :: class 0

Query :: Recorded test call requested for CC(=O)OC/C=C(\C)CCC=C(C)C
Result :: class 0

Query :: I'd appreciate the recorded outcome for O=C(O)Cc1ccccc1Nc1c(Cl)cccc1Cl from this test.
Result :: class 0

Query :: How did this test come out for COc1ccc2c(c1)c(CC(=O)O)c(C)n2C(=O)c1ccc(Cl)cc1 ?
Result :: class 0

====

molecular target: Retinoic acid receptor alpha (Homo sapiens) (UniProt P10276); assay: ATG_RARa_TRANS: Attagene TRANS-FACTORIAL HepG2 Assay for human Retinoic Acid Receptor alpha (RARa) (AID 2283005)
Sequence (P10276 whole entry, looked up): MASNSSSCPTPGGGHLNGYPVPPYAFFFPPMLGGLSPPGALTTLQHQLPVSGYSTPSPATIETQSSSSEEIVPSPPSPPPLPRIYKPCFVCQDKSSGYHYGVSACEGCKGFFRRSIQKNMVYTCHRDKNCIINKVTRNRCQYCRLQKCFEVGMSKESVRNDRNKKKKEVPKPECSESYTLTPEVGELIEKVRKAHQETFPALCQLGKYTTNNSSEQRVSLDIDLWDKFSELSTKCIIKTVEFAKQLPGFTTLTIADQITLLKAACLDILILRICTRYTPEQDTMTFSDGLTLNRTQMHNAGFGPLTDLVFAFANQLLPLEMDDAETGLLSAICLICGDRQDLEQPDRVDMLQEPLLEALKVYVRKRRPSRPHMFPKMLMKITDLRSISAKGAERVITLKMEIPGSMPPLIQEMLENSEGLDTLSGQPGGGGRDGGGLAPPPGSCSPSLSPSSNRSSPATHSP
Inconclusive results are not listed. The source made the active and inactive calls. Rule for the calls: active = hit-call score of the fitted dose curve at least 0.9, where 1 is the maximum; inconclusive = response in the unintended direction; inactive = score below 0.9.
Your answer must be one of the following: active, inactive

• CC(=O)OCCOCCOCCOC(C)=O = inactive
• Oc1ccc2ccccc2c1N=Nc1ccccc1 = inactive
• C=CCOC(=O)c1ccccc1C(=O)OCC=C = inactive
• Nc1ccccc1N = inactive

Query :: Give the logged outcome of this assay for the following compound: OC[C@@H](O)[C@@H](O)[C@H](O)[C@H](O)CO
Result :: inactive

Query :: Hi, do you know how CCNc1cccc(C)c1 came out in this test?
Result :: inactive

Query :: Any idea what this test logged for COc1cc(/C=C/C(=O)CC(=O)/C=C/c2ccc(O)c(OC)c2)ccc1O ?
Result :: inactive

Query :: Short answer needed: outcome of this test for CC1(C)NC(=O)NC1=O ?
Result :: inactive

====

assay: CEETOX_H295R_CORTIC: CeeTox H295R High-throughput Steroidogenesis Assay for Corticosterone (CORTIC) (AID 2283437); conditions: actives raise or lower the signal;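 further: corticosterone secreted into medium quantified by mass spectrometry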
The source made the active and inactive calls. The calls were made as follows: active = hit-call score of the fitted dose curve at least 0.9, where 1 is the maximum; inactive = score below 0.9.
Your response should consist of one outcome taken from yes for active, no for inactive

Example cases with answers are listed next.
- CN1CCN(Cc2cc(-c3ccc4[nH]c(=O)oc4c3)co2)[C@@H](c2ccc(F)cc2)C1: no
- NC(=O)Cn1c(=O)cc(CCN2CCN(c3nccc4sccc34)CC2)c2ccc(F)cc21: yes
- COc1ccc(S(=O)(=O)N2C(=O)[C@@](c3ccccc3OC)(N3C[C@H](O)C[C@H]3C(=O)N(C)C)c3cc(Cl)ccc32)c(OC)c1: no

Pending molecule:
Query :: Outcome logged for Cc1nc(C)nc(N2C[C@@H](C)N(c3ccnc([C@@H](C)O)n3)[C@@H](C)C2)n1 in this assay:
Result :: no

====

experiment: ATG_PXRE_CIS: Attagene CIS-FACTORIAL HepG2 Assay for human Pregnane X Receptor Element (PXRE) (AID 2282957); details: HepG2 Attagene CIS-FACTORIAL PXRE reporter, mRNA; actives raise or lower the signal
Calls of active or inactive are those of the source. Rule for the calls: active = hit-call score of the fitted dose curve at least 0.9, where 1 is the maximum; inactive = score below 0.9.
Bench note: report the call from Yes (active), No (inactive)

Known results for compounds:
* NCCO | No
* FC(F)(F)C(F)(F)C(F)(F)C(F)(F)C(F)(F)C(F)(F)CCI | No
* CCCCCCCCCCO | No

Query :: Hi, sorry to bother you, what did the test record for Cc1cccc(Nc2cc(Cl)nc(SCC(=O)O)n2)c1C ?
Result :: Yes

FYI, the data here is from PubChem BioAssay (EPA / NIEHS).
